Biological target: Cytoplasmic tyrosine-protein kinase BMX (Homo sapiens)
Sequence (P51813 whole entry): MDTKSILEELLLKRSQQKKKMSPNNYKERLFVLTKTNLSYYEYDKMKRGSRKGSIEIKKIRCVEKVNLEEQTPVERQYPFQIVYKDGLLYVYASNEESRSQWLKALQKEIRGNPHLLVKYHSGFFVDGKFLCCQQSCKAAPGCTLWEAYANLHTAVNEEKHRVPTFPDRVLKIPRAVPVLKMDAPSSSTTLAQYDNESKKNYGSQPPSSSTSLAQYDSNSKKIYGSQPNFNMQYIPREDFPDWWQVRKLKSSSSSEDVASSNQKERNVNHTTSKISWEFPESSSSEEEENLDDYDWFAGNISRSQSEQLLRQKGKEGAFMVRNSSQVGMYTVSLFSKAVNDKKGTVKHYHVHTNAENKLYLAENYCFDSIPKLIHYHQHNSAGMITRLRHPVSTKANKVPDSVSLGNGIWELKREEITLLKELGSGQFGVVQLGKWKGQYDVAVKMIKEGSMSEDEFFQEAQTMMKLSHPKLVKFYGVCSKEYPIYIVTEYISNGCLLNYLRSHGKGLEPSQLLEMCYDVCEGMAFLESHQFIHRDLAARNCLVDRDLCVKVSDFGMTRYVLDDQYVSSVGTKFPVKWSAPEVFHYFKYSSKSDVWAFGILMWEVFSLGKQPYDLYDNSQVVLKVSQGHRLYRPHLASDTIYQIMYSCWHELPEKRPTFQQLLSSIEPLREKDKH
pIC50: −log10 of the molar value.
outcome-measure: pIC50

Enquiry: What value of pIC50 has been recorded for this entry: `C=CC(=O)N1CCC[C@@H](Nc2nc(Nc3ccc(OCCCOC4(CC)OCC(C)(C)CO4)cc3)ncc2F)C1`
Return: > 7.00

---

Kindly supply the reported IC50 values for the records listed here.
Biological target: Tyrosine-protein kinase ITK/TSK (Homo sapiens)
Sequence (Q08881 whole entry): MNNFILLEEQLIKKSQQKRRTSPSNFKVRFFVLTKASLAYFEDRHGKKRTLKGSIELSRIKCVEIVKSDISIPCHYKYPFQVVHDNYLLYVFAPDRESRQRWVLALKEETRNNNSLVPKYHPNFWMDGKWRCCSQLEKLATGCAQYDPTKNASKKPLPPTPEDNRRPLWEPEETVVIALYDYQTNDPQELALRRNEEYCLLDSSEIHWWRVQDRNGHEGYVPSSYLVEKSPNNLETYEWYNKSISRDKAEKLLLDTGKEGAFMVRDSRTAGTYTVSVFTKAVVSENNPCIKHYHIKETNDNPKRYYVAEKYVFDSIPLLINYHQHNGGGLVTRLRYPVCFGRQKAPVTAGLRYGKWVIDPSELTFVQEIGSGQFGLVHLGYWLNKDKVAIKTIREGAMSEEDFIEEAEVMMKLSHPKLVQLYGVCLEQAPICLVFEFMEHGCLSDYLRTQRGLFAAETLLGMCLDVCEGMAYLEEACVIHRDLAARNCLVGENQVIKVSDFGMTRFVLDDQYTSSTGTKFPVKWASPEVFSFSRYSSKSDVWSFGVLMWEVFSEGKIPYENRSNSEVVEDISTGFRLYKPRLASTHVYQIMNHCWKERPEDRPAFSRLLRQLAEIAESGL

C=CC(=O)N1CCC[C@@H](Nc2nc(Nc3ccc(OCCCOC4(CC)OCC(C)(C)CO4)cc3)ncc2F)C1	> 100 nM

Could you now consider this next molecule?
Enquiry: What value of IC50 has been recorded for this entry: `C=CC(=O)Nc1ccccc1Nc1nc(Nc2ccc(OCCCOC3(CC)OCC(C)(C)CO3)cc2)ncc1F`
Return: > 100 nM

All values here come from ChEMBL document CHEMBL5729309.
